For each of the binders below, state its Rel. KD (KD of hIGFBP-2/KD of hIGFBP-2 mutant).
# measurementTarget: T1, IGF-II (insulin-like growth factor II) (UniProt P01344 25-91)
# T1 construct: Amine-coupled (70 RU) to a CM-5 biosensor chip
# T1 sequence (P01344 25-91 limits assumed): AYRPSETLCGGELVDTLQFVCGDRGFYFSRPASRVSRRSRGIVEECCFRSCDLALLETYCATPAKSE
# experimentalDetails: SPR (BIAcore), IGF-II amine-coupled to CM5 chip; ratio against hIGFBP-2
# respond with the number and nothing more

Exercise: Please look up its Rel. KD (KD of hIGFBP-2/KD of hIGFBP-2 mutant): K180A K181AHis hIGFBP-2 (other, human, mature; also called K180A, K181A mutation) EVLFRCPPCTPERLAACGPPPVAPPAAVAAVAGGARMPCAELVREPGCGCCSVCARLEGEACGVYTPRCGQGLRCYPHPGSELPLQALVMGEGTCEKRRDAEYGASPEQVADNGDDHSEGGLVENHVDSTMNMLGGGGSAGRKPLKSGMKELAVFREKVTEQHRQMGKGGKHHLGLEEPAALRPPPARTPCQQELDQVLERISTMRLPDERGPLEHLYSLHIPNCDKHGLYNLKQCKMSLNGQRGECWCVNPNTGKLIQGAPTIRGDPECHLFYNEQQEARGVHTQRMQHHHHHH
Solution: 0.68

Exercise: // returns reported Rel. KD (KD of hIGFBP-2/KD of hIGFBP-2 mutant) for input K234AHis hIGFBP-2 (other, human, mature; also called K234A hIGFBP-2; K234AHis IGFBP-2) EVLFRCPPCTPERLAACGPPPVAPPAAVAAVAGGARMPCAELVREPGCGCCSVCARLEGEACGVYTPRCGQGLRCYPHPGSELPLQALVMGEGTCEKRRDAEYGASPEQVADNGDDHSEGGLVENHVDSTMNMLGGGGSAGRKPLKSGMKELAVFREKVTEQHRQMGKGGKHHLGLEEPKKLRPPPARTPCQQELDQVLERISTMRLPDERGPLEHLYSLHIPNCDKHGLYNLAQCKMSLNGQRGECWCVNPNTGKLIQGAPTIRGDPECHLFYNEQQEARGVHTQRMQHHHHHH
Solution: 0.37

Exercise: For the binder shown here, K237AHis hIGFBP-2 (other, human, mature) EVLFRCPPCTPERLAACGPPPVAPPAAVAAVAGGARMPCAELVREPGCGCCSVCARLEGEACGVYTPRCGQGLRCYPHPGSELPLQALVMGEGTCEKRRDAEYGASPEQVADNGDDHSEGGLVENHVDSTMNMLGGGGSAGRKPLKSGMKELAVFREKVTEQHRQMGKGGKHHLGLEEPKKLRPPPARTPCQQELDQVLERISTMRLPDERGPLEHLYSLHIPNCDKHGLYNLKQCAMSLNGQRGECWCVNPNTGKLIQGAPTIRGDPECHLFYNEQQEARGVHTQRMQHHHHHH , give the reported Rel. KD (KD of hIGFBP-2/KD of hIGFBP-2 mutant).
Solution: 2.9
